// values below are reported inhibition
molecular target: Receptor tyrosine-protein kinase erbB-4 (Homo sapiens) (UniProt Q15303); conditions: at 1 µM;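 also: each value is a mean percent inhibition of ERBB4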
Sequence (Q15303 whole entry): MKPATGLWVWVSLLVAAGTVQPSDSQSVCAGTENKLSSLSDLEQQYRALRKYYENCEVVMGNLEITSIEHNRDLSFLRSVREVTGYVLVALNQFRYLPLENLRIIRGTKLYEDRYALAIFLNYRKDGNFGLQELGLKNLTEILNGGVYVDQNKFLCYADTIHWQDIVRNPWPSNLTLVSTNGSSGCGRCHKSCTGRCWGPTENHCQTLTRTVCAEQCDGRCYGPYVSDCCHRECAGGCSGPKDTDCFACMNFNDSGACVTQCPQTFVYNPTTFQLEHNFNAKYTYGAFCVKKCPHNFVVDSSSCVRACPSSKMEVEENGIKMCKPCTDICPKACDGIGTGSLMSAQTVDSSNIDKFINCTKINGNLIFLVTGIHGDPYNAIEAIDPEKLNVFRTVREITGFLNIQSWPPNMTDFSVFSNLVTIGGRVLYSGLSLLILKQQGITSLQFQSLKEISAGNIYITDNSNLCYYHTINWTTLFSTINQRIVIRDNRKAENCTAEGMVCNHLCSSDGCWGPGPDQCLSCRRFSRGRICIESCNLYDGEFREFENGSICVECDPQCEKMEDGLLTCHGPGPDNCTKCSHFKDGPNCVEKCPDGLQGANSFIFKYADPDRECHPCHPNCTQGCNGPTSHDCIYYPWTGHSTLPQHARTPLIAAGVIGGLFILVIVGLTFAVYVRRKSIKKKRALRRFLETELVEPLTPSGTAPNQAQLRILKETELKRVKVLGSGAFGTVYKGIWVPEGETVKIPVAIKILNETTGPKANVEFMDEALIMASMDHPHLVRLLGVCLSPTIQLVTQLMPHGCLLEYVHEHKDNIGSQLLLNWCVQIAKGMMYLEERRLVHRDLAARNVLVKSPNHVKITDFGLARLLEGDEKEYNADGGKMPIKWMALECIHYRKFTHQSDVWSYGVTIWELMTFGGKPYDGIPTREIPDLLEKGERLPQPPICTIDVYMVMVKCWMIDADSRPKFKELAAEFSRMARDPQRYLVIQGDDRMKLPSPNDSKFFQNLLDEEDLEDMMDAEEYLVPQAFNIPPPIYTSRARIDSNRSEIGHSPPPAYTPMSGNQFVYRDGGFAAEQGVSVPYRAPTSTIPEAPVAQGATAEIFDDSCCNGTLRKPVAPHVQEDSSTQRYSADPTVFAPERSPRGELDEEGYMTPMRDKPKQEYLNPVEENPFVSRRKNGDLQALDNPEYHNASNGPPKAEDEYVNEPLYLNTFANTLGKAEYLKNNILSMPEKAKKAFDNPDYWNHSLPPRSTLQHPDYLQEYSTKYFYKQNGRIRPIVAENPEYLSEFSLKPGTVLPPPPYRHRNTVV
Write the number in % without appending the unit.

Consider the following illustrative entries.
O=C1Nc2ccccc2/C1=C/Nc1ccc2[nH]c(=O)[nH]c2c1 | 15.3
NS(=O)(=O)c1ccc(-c2cc3ccncc3cc2OCc2ccccc2)cc1 | 8.97
N#Cc1c(NC(=O)c2ccccc2F)sc2c1CCCC2 | 0.66
COc1cc2ncnc(Nc3ccc(C)c(O)c3)c2cc1OC | 68.7
Nc1nccc(-c2c(-c3ccc(F)cc3)nn3cc(C(F)(F)F)ccc23)n1 | 11.4

With those in mind, consider the next molecule.
# inhibition (molecule: `c1ccc(Cc2nc3ccc(Nc4ncnc5ccccc45)cc3[nH]2)cc1` ) is 115

----------
Target: Tyrosine-protein kinase Mer (Homo sapiens) (UniProt Q12866);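 also: reported value is a mean inhibition of MER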
Sequence (whole entry): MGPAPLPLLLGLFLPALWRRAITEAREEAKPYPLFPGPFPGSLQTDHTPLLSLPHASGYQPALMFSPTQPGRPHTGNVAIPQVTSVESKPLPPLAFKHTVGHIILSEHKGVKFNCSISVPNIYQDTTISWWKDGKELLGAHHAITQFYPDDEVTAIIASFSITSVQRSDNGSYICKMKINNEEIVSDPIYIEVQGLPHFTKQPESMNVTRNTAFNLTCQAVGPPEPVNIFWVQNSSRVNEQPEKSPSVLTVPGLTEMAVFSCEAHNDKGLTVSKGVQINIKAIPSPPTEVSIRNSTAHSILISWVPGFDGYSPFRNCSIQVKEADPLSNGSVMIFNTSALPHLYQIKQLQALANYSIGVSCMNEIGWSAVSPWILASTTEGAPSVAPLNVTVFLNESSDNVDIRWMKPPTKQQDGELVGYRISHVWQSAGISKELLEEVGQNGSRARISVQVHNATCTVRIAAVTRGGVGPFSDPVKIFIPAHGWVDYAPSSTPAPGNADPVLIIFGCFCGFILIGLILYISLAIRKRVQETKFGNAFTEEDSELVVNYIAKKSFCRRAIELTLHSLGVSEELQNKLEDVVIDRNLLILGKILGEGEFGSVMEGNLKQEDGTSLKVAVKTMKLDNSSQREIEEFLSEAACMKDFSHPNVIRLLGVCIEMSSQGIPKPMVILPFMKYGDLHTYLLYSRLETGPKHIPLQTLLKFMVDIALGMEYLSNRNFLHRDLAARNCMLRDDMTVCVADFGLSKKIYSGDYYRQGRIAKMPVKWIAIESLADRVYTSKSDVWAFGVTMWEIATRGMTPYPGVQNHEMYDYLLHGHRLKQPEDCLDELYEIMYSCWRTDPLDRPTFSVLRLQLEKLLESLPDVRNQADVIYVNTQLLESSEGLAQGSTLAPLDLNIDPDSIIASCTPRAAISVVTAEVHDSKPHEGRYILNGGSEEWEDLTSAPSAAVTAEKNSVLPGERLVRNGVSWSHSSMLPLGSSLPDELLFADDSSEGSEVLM
Settings: at 0.1 µM
# cutoff 3% applies to inhibition; >= gives 1 (yes), < gives 0 (no)

Known results for molecules:
[O-][S+]1CCN(Cc2ccc(-c3ccc4ncnc(Nc5ccc(OCc6ccccc6)c(Cl)c5)c4c3)o2)CC1 | 1 (yes)
Oc1cccc(-c2nc(-c3ccccc3)[nH]c2-c2ccncc2)c1 | 0 (no)
Cc1cc(O)cc(C)c1/C=C/c1cncc(C(=O)N(C)C)c1 | 0 (no)
COc1cc2ncnc(Nc3ccc4c(cnn4Cc4ccccc4)c3)c2cc1OC | 1 (yes)

Does the reported inhibition for `COc1cccc(-n2ncc3c(N/N=C/c4ccc(C)cc4)ncnc32)c1` fall at or above the 3% mark? 0 (no)
